B1: library; numbered along this chain (parent)
chain: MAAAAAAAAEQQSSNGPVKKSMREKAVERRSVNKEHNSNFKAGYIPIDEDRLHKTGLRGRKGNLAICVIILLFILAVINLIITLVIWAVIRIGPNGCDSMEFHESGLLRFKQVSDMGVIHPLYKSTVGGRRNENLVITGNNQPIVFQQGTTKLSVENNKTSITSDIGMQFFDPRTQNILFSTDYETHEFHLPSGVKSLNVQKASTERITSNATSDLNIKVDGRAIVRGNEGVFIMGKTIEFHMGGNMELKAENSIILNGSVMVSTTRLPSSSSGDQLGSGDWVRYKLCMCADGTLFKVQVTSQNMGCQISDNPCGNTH

# Variants of: B1
# test: SGCB cell-surface expression functional score (HA stain, bin4 vs bin1, normalised to synonymous) (log10 ratio); higher = more cell-surface SGCB (functional)
Hi, to clarify the labels: Yes covers SGCB cell-surface expression functional score (log10) from -0.2 upward, No covers anything below -0.2.

Study these solved cases before continuing.
• M243W = No
• M305I = Yes
• C314H = Yes

Q: Has K152Q a recorded SGCB cell-surface expression functional score (log10) greater than or equal to -0.2?
Result: No

Q: // next record R29W
Result: Yes
